# Target: T1, TNFR1 (Homo sapiens, UniProt P19438)
# T1 chain: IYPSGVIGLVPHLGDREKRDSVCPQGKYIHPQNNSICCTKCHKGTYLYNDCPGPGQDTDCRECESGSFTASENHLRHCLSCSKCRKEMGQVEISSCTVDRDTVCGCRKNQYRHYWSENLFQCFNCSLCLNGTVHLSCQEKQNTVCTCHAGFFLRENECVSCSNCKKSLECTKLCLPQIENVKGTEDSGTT
# Experimental protocol: yeast display SC50
Readout type: apparent Kd (screen) (nM)
Number in nM, nothing else.

INSERT INTO results (binder, readout_type, quantitative_result) VALUES
  ('A47T (designed binder) SMEEEVEKAAKEYEKKKKEAIEKHLEKLKAKDKEAAERFLKELEEATKEYAKDEAKTMSEEEAKRRAKKYKEKVLLSELSEEEQKEIKEAEEKLVRTILKYVEEAAK', 'apparent Kd (screen)', 0.653);

Alright, here's another binder for you.
Ask | Recorded apparent Kd (screen) of K8F (designed binder) SMEEEVEFAAKEYEKKKKEAIEKHLEKLKAKDKEAAERFLKELEEAAKEYAKDEAKTMSEEEAKRRAKKYKEKVLLSELSEEEQKEIKEAEEKLVRTILKYVEEAAK , please.
Reply | 0.539

Just for reference, paper PMC12416549 is where these values come from.
